Taken from a melting point compilation (Tetko et al.).

Measured melting point values are reported for all entries that follow.

Sample records with melting point:
compound | melting point
Oc1cccc(-n2cccn2)c1 | 131 to 133 °C
CNC(C)c1sc(-c2ccc(C)cc2)nc1C (centres undefined) | 77 to 79 °C

Which melting point value belongs to O=C(Cc1ccc(O)cc1)NCCO ? 134 to 136 °C

Another compound to check: CC1CNc2ccccc2N(Cc2ccccc2)C1=O (centres undefined) 107 to 109 °C

###

parameter: melting point

Sample records with melting point:
molecule | melting point
O=C(O)CCCSc1ccccc1 | 66 to 68 °C
CCCn1c(S)nnc1CO | 119 to 121 °C
CN(c1cccc(Cl)c1)S(=O)(=O)c1cccc(C(=O)O)c1 | 162 to 164 °C
CC(Cl)C(=O)c1ccc(Cl)cc1 (stereo not drawn) | 58 to 60 °C
CCCCn1c(N)c(NCC)c(=O)[nH]c1=O | 285 to 286 °C
CN(C)S(=O)(=O)CC(=O)O | 130 to 132 °C

As a next step, examine the molecule that follows.
Which melting point value belongs to CN(C)C(=O)COc1ccccc1C(=O)O ? 127 to 129 °C
